target: MET (human); assay: radiometric filter-binding kinase assay, Kinase HotSpot; settings: compound 0.5 µM; ATP 10 µM
measurementKind: residual activity (%)
# unit: % | format: bare number

The molecule identified as O=C1Cc2c([nH]c3ccc([N+](=O)[O-])cc23)-c2ccccc2N1 registered its residual activity at 117

The molecule identified as CCCNC(=O)Nc1ccc(Oc2ncnc3cc(OC)c(OC)cc23)cc1Cl registered its residual activity at 73.6

The molecule identified as COc1cc2ncnc(Nc3ccc(F)c(Cl)c3)c2cc1OCCCN1CCOCC1 registered its residual activity at 92.4

The molecule identified as O=c1cc(-c2cccc3c2Sc2ccccc2S3)oc(N2CCOCC2)c1 registered its residual activity at 107

The molecule identified as Nc1n[nH]c2nnc(-c3c(-c4ccccc4)nn4ccccc34)cc12 registered its residual activity at 95

The molecule identified as O=C(NC(NC(=S)Nc1ccc(F)c([N+](=O)[O-])c1)C(Cl)(Cl)Cl)C(c1ccccc1)c1ccccc1 (configuration not stated) registered its residual activity at 101

The molecule identified as CSc1nc(-c2ccc(F)cc2)c(-c2ccnc(NC(C)c3ccccc3)c2)[nH]1 (configuration not stated) registered its residual activity at 116

The molecule identified as Nc1nc(Nc2ccc(S(N)(=O)=O)cc2)nn1C(=S)Nc1c(F)cccc1F registered its residual activity at 40.4

The molecule identified as Cc1cc2ncc(-c3ccccc3)nc2cc1C registered its residual activity at 95.1

The molecule identified as O=C1Nc2cc(Br)ccc2/C1=C1/Nc2ccccc2/C1=N\O registered its residual activity at 70

The molecule identified as Oc1ccc(-c2nc(-c3ccc(F)cc3)c(-c3ccncc3)[nH]2)cc1 registered its residual activity at 94.4

The molecule identified as CC(C)n1cnc2c(Nc3cccc(Cl)c3)nc(NCCO)nc21 registered its residual activity at 83.9

The molecule identified as NC(=O)c1ccc(N(C(N)=O)c2c(F)cccc2F)nc1-c1ccc(F)cc1F registered its residual activity at 89.4

The molecule identified as O=c1cc(N2CCNCC2)oc2c(-c3ccccc3)cccc12 registered its residual activity at 107

The molecule identified as COc1ccc(-c2cnc3c(-c4ccsc4)cnn3c2)cc1 registered its residual activity at 86.3

The molecule identified as Nc1nc(Nc2ccc(S(N)(=O)=O)cc2)nn1C(=O)c1c(F)cccc1F registered its residual activity at 75.3

The molecule identified as CC(C)[C@H](CO)Nc1nc(Nc2cccc(Cl)c2)c2ncn(C(C)C)c2n1 registered its residual activity at 96.2

###

molecular target: UniProt P42681; assay: radiometric filter-binding kinase assay, Kinase HotSpot; details: compound 0.5 µM; ATP 10 µM
Sequence (P42681 whole entry, looked up): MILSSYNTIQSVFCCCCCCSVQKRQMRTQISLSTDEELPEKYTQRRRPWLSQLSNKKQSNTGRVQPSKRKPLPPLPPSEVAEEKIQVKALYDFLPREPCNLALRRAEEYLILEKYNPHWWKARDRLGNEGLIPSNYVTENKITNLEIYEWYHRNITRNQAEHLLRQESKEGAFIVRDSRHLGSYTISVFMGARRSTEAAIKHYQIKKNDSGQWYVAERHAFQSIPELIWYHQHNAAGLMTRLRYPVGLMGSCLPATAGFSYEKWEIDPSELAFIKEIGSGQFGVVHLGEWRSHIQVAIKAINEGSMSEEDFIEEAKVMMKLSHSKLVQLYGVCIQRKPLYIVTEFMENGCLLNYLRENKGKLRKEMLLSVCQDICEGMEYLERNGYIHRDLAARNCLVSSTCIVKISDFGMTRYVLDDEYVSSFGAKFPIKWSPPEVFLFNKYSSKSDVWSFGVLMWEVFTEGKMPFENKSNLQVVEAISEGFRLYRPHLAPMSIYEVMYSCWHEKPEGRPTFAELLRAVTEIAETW
measurementKind: residual activity
Number first, unit second: that is the form wanted.

The compound identified as O=c1cc(N2CCNCC2)oc2c(-c3ccccc3)cccc12 registered its residual activity at 95.4%

The compound identified as Oc1ccc(-c2nc(-c3ccc(F)cc3)c(-c3ccncc3)[nH]2)cc1 registered its residual activity at 78.5%

The compound identified as CCCNC(=O)Nc1ccc(Oc2ncnc3cc(OC)c(OC)cc23)cc1Cl registered its residual activity at 101%

The compound identified as O=c1cc(-c2cccc3c2Sc2ccccc2S3)oc(N2CCOCC2)c1 registered its residual activity at 106%

The compound identified as Nc1nc(Nc2ccc(S(N)(=O)=O)cc2)nn1C(=O)c1c(F)cccc1F registered its residual activity at 95.8%

The compound identified as O=C(Nc1ccc(Cl)cc1)c1ccccc1NCc1ccncc1 registered its residual activity at 97.7%

The compound identified as CC(C)[C@H](CO)Nc1nc(Nc2cccc(Cl)c2)c2ncn(C(C)C)c2n1 registered its residual activity at 54.1%

The compound identified as CC(C)(C)c1nc2c3ccc(F)cc3c3c(=O)[nH]ccc3c2[nH]1 registered its residual activity at 77.1%
